Attribution: patent US12044680B2

target: HLA-A*02:01 tetramers with exiting peptide ILKEKK(DNP)VHGV (Homo sapiens, UniProt P04439, D140Y/D185E/D98H/E176V/E277Q/G131W/G231S/I119V/I121R/I166T/I218V/L300P/L318F/N151K/N90K/P208A/P217A/Q86G/Q94H/R138H/R169H/T345S); construct: prepared as known in the art, for instance by deletion of the transmembrane domain and the cytoplasmic domain; made in house; assay: HLA-A*02:01 peptide exchange quantitation; assay type: binding; settings: entering peptide 20 μM final, 4 hours; HLA-A*02:01 tetramer
Classify as follows. Reported % peptide exchange greater than or equal to 40%: t. Reported % peptide exchange below: f.

Previously resolved entries follow.
RESIDUE_CODES: AVLDGLLSL
CAT: t
--
RESIDUE_CODES: SYVPSAEQI
CAT: f
--
RESIDUE_CODES: LTLGEFLKL
CAT: t
--
RESIDUE_CODES: YLLEFTPPV
CAT: t
--
RESIDUE_CODES: FLYDDNQRV
CAT: t
--
RESIDUE_CODES: IMQIMPYGC
CAT: t
--
RESIDUE_CODES: CINGVCWTV
CAT: t

Pending sequence:
Dear colleague, could you confirm whether ALLAVGATK has % peptide exchange at or above 40%?
f
